Test system: NCI-H522 lung
assay_method_text: NCI tumour cell line growth inhibition, 48 h
Parameter TGI: see the listing below.

{"molecule": "Cc1c(S(=O)(=O)/N=C(\\N)Nc2ccc(Cl)cc2)sc2ccc(Cl)cc12", "reported_value": "30.1 µM"}
{"molecule": "C/C(CC1C2CCCC1C2)=N\\NC(N)=O (stereo not drawn)", "reported_value": "> 100 µM"}
{"molecule": "C=C(CN1CCc2ccccc2C1)c1ccc(C(=O)Nc2ccccc2N)cc1", "reported_value": "3.72 µM"}

Kindly note the recorded TGI for `C=CCSc1nc2ccccc2c(=O)n1Cc1ccco1` , which is > 100 µM

Kindly note the recorded TGI for `CCCCCCCCCCN=C(c1ccc(N(C)C)cc1)c1ccc(N(C)C)cc1` , which is 5.94 µM

Kindly note the recorded TGI for `N#CCCN(CCC#N)c1ccc(/C=C2\N=C(c3ccccc3)N(c3ccc(Cl)cc3)C2=O)cc1` , which is > 100 µM

Kindly note the recorded TGI for `CCN(CC)CCNC(=O)c1cn2ncnc(Oc3ccc(NC(=O)Nc4ccc(Cl)c(C(F)(F)F)c4)c(F)c3)c2c1C` , which is 4.13 µM

Kindly note the recorded TGI for `COC(=O)c1c2c(cc3c1CC1(C3)Cc3cc4c(c(C(=O)OC)c3C1)CCCC4)CCCC2` , which is > 100 µM

----------
Test system: HCC-2998 colon
assay_method_text: NCI tumour cell line growth inhibition, 48 h
readout_type: GI50

{"molecule": "CC1CCCc2c1nn(C(=O)/C=C(\\N)c1ccccc1)c2N (stereo not given)", "readout_type": "GI50", "reported_value": "14.6 µM"}
{"molecule": "COc1ccc2cc(-c3ccc(-c4ccc(C(=N)N)s4)s3)ccc2c1", "readout_type": "GI50", "reported_value": "3.35 µM"}
{"molecule": "O=S(=O)(CCOCc1ccc(-c2ccc3ncnc(Nc4ccc(OCc5cccc(F)c5)c(Cl)c4)c3c2)o1)c1ccccc1", "readout_type": "GI50", "reported_value": "> 25 µM"}

Kindly note the recorded GI50 for `COc1cc2c(cc1-c1c(C)noc1C)cc(C)c(=O)n2Cc1ccccn1` , which is 1.79 µM

Kindly note the recorded GI50 for `CC(=O)[CH-]C(C)=O.[CH2-]C.[CH2-]C.[Tl+3]` , which is > 100 µM

----------
Parameter TGI: see the listing below.
Tested on: A498 renal
assay_method_text: NCI tumour cell line growth inhibition, 48 h

Solved cases below.
{"compound": "O=S1(=O)NCCCN1CCNc1nccc(-c2c(-c3cccc(O)c3)nc3sccn23)n1", "TGI": "45.9 µM"}
{"compound": "COc1cc2cnc3c4ccccc4ccc3c2cc1OC", "TGI": "> 100 µM"}
{"compound": "c1ccc2sc(SCSc3nc4ccccc4s3)nc2c1", "TGI": "> 100 µM"}
{"compound": "O=C1C=CC(=O)N1Nc1ccc([N+](=O)[O-])cc1[N+](=O)[O-]", "TGI": "> 100 µM"}
{"compound": "NNC(=O)c1ccc[n+](CCc2ccccc2)c1", "TGI": "> 100 µM"}

Kindly note the recorded TGI for O=c1ncccn1C1C=C(CO)C(O)C1O (stereo unspecified) , which is > 50 µM

Kindly note the recorded TGI for `CNC(SC)=C1C(=O)OC(C)(C)OC1=O` , which is > 100 µM
